Source of measurements: patent US10047059B2

Overview of recorded inhibition at 1 µM for various molecules
- tested_system: BRAF V600E (Homo sapiens, UniProt P15056, V600E)
- Construct: purchased Invitrogen
- Sequence (P15056 whole entry V600E): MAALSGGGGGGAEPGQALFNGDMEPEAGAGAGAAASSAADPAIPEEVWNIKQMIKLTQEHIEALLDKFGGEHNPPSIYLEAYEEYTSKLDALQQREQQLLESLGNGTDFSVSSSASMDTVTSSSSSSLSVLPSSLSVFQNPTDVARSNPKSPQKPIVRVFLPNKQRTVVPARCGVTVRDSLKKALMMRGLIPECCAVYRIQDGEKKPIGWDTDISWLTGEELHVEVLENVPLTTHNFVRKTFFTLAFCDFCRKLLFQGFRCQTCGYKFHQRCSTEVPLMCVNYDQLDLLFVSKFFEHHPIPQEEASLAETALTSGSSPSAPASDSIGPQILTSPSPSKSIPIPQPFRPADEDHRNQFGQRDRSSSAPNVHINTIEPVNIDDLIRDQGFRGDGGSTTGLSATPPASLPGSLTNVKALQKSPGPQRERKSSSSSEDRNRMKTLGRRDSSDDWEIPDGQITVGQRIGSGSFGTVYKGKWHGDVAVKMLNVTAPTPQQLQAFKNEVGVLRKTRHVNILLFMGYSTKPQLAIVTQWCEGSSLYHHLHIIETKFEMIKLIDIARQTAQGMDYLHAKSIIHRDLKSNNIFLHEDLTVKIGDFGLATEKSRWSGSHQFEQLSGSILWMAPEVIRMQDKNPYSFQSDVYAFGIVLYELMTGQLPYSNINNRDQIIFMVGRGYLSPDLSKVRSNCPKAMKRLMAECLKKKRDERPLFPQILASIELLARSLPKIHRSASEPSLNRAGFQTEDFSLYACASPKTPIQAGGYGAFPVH
- test: Z'-LYTE kinase inhibition assay against BRAF V600E
- Format: biochemical
- condition_info: % inhibition at 1 μM, Z'-LYTE method
- Experimental: Inhibitory activities Inhibitory activities of compounds against BRAF, and BRAF V600E were measured by Invitrogen using Z′-LYTE® Method as briefly described in the following. 4× Test compounds are dissolved in 1% DMSO. […] Fluorescence was read by plate reader. IC50 was calculated by plotting the concentration of compound vs the percentage of inhibition in treated wells using GraphPad Prism 5. […]
observed_property: inhibition at 1 µM

1) O=C(Nc1ccc(Cl)cc1)Nc1ccc(C(=O)c2ccc3ncc(N4CCNCC4)nc3c2)cc1 [Compound C09] | > 89%
2) O=C(Nc1ccc(Cl)cc1)Nc1ccc(C(=O)c2ccc3ncc(N4CCOCC4)nc3c2)cc1 [Compound C04] | < 70%
3) O=C(Nc1ccc(C(=O)c2ccc3nccnc3c2)cc1)Nc1cccc(C(F)(F)F)c1 [Compound C01] | > 89%
4) N#Cc1cnc2ccc(C(=O)c3ccc(NC(=O)Nc4ccc(Cl)c(C(F)(F)F)c4)cc3F)cc2n1 [Compound C30] | < 70%
5) O=C(Nc1ccc(C(=O)c2ccc3ncc(N4CCOCC4)nc3c2)c(F)c1)Nc1ccc(Cl)c(C(F)(F)F)c1 [Compound C25] | < 70%
